Reference source: patent US20240208956A1

- test.target: HDAC6 human recombinant (Homo sapiens (Human), UniProt Q9UBN7)
- Sequence (Q9UBN7 whole entry): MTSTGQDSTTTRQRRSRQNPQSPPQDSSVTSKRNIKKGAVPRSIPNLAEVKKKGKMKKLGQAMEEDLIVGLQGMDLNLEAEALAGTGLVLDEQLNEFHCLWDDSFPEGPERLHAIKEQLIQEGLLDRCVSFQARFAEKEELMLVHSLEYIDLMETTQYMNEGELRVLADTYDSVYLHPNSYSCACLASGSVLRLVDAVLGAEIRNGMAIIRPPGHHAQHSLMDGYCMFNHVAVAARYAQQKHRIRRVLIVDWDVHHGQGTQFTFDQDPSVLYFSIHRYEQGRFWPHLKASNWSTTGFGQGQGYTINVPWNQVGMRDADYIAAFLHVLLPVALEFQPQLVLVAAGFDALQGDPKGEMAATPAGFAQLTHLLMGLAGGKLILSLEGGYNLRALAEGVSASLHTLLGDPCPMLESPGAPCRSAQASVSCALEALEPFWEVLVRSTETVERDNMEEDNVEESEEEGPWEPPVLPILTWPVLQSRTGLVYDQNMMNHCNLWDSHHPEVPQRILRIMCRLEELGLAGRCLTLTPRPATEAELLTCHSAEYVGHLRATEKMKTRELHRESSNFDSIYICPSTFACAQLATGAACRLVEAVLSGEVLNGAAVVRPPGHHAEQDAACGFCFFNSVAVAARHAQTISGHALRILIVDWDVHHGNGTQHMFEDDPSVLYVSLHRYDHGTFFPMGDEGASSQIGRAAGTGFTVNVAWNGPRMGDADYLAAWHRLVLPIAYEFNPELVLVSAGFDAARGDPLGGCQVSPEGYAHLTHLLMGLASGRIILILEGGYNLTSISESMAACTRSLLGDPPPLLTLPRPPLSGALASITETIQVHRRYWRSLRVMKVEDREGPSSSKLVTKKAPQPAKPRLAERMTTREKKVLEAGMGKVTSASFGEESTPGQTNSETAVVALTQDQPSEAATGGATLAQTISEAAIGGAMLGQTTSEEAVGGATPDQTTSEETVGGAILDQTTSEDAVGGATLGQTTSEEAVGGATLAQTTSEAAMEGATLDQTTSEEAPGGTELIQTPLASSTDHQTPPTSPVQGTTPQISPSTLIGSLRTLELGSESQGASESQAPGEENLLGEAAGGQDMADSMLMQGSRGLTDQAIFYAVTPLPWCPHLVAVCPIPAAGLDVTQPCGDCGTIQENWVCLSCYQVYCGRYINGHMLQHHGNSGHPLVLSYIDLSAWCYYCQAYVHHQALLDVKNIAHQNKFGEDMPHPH
- assay.remarks: HDAC enzyme activity inhibition (in vitro), HDAC6 fluorimetric assay
- stated.conditions: samples at 0.1-1000 nM; 37° C. 60 minutes; fluorescence Ex 390 nm, Em 460 nm
- Description: Confirmation of HDAC Enzyme Activity Inhibition (In Vitro) An HDAC enzyme inhibitory capacity of test material was measured by using HDAC1 Fluorimetric Drug Discovery Assay Kit (Enzolifesciences: BML-AK511) and HDAC6 human recombinant (Calbiochem: 382180). For a HDAC1 assay, samples were treated at a concentration of 100 nM, 1000 nM and 10000 nM. […] For final result values, each […] value was calculated with GraphPad Prism 4.0 program.
pIC50: −log10 of the molar value.
measurement.name: pIC50

[[record]]
compound = "CN1C[C@@H]2C[C@H]1CN2C(=S)N(Cc1ccc(-c2nnc(C(F)F)o2)cc1F)c1ccc(F)cc1 [Compound 39]"
test_target = "HDAC6 human recombinant (Homo sapiens (Human), UniProt Q9UBN7)"
measurement_name = "pIC50"
recorded_result = 7.52


1. CC(C)N1CC2(CN(C(=S)N(Cc3ccc(-c4nnc(C(F)F)o4)cc3)c3cccc(F)c3)C2)C1 [Compound 16]
2. O=S1(=O)CCN(C(=S)N(Cc2ccc(-c3nnc(C(F)F)o3)cn2)c2ccccc2)CC1 [Compound 6]
3. CN1CC2(C1)CN(C(=S)N(Cc1ccc(-c3nnc(C(F)F)o3)cc1F)c1ccc(F)cc1F)C2 [Compound 12]
Ask: Place the items in sequence of falling pIC50. List the labels according to the requested ordering.
Reply: 2, 1, 3
(2: 7.51, 1: 7.20, 3: 6.87)

====

- test.target: HDAC6 human recombinant (Homo sapiens (Human), UniProt Q9UBN7)
- assay.remarks: HDAC enzyme activity inhibition (in vitro), HDAC6 fluorimetric assay
- stated.conditions: samples at 0.1-1000 nM; 37° C. 60 minutes; fluorescence Ex 390 nm, Em 460 nm
measurement.name: IC50 (nM)

[[record]]
compound_string = "CC(C)N1CC2(CN(C(=S)N(Cc3ccc(-c4nnc(C(F)F)o4)cc3F)c3cccc(F)c3)C2)C1"
recorded_result = 67

[[record]]
compound_string = "Fc1ccc(N(Cc2ccc(-c3nnc(C(F)F)o3)cc2)C(=S)N2CC3(C2)CN(C2COC2)C3)cc1"
recorded_result = 83

[[record]]
compound_string = "CN1CC2(C1)CN(C(=S)N(Cc1ccc(-c3nnc(C(F)F)o3)cc1)c1cccc(F)c1)C2"
recorded_result = 39

[[record]]
compound_string = "CN1CC2(C1)CN(C(=S)N(Cc1ccc(-c3nnc(C(F)F)o3)cc1F)c1ccccc1)C2"
recorded_result = 45

[[record]]
compound_string = "Fc1ccc(N(Cc2ccc(-c3nnc(C(F)F)o3)cc2F)C(=S)N2CC3(C2)CN(C2COC2)C3)cc1F"
recorded_result = 47


A. FC(F)c1nnc(-c2ccc(CN(C(=S)N3CCOCC3)c3ccccc3)nc2)o1
B. CN1CC2(C1)CN(C(=S)N(Cc1ccc(-c3nnc(C(F)F)o3)cc1F)c1ccc(F)c(Cl)c1)C2
C. CN1CCC2(CC1)CN(C(=S)N(Cc1ccc(-c3nnc(C(F)F)o3)cc1F)c1ccc(F)c(F)c1)C2
Ask: Place the items in sequence of falling IC50. List the labels according to the requested ordering.
Reply: A, B, C
(A: 66 nM, B: 46 nM, C: 28 nM)

I. CC(C)N1CC2(CN(C(=S)N(Cc3ccc(-c4nnc(C(F)F)o4)cc3)c3ccc(F)cc3)C2)C1
II. CC(=O)N1CC2(C1)CN(C(=S)N(Cc1ccc(-c3nnc(C(F)F)o3)cc1F)c1ccc(F)c(F)c1)C2
III. CN1CC2(C1)CN(C(=S)N(Cc1ccc(-c3nnc(C(F)F)o3)cc1)c1ccc(F)c(F)c1)C2
IV. Fc1ccc(N(Cc2ccc(-c3nnc(C(F)F)o3)cc2F)C(=S)N2CCC3(CC2)CN(C2COC2)C3)cc1F
Ask: Place the items in sequence of falling IC50. List the labels according to the requested ordering.
Reply: IV, I, II, III

I. CN1CC2(CCN(C(=S)N(Cc3ccc(-c4nnc(C(F)F)o4)cc3F)c3ccc(F)c(F)c3)CC2)C1
II. Fc1cc(-c2nnc(C(F)F)o2)ccc1CN(C(=S)c1ccncc1)c1ccccc1
Ask: Parameter check: reported IC50 is higher for which label, I or II ? # reply format: chosen label
Reply: II
(II: 138 nM, I: 80 nM)

A. Fc1cc(-c2nnc(C(F)F)o2)ccc1CN(C(=S)N1CC2(C1)CN(C1COC1)C2)c1ccc(Cl)c(Cl)c1
B. Fc1cccc(N(Cc2ccc(-c3nnc(C(F)F)o3)cc2F)C(=S)N2CC3(C2)CN(C2COC2)C3)c1
Ask: Parameter check: reported IC50 is higher for which label, A or B ? # reply format: chosen label
Reply: A
(A: 83 nM, B: 51 nM)

I. CN1CC2(C1)CN(C(=S)N(Cc1ccc(-c3nnc(C(F)F)o3)cc1F)c1ccc(F)c(F)c1)C2
II. FC(F)c1nnc(-c2ccc(CN(C(=S)N3CCN(C4COC4)CC3)c3ccccc3)cc2)o1
III. Fc1ccc(N(Cc2ccc(-c3nnc(C(F)F)o3)cc2)C(=S)N2CC3(C2)CN(C2COC2)C3)cc1Cl
Ask: Place the items in sequence of falling IC50. List the labels according to the requested ordering.
Reply: III, I, II
(III: 112 nM, I: 76 nM, II: 37 nM)

P. Fc1ccc(N(Cc2ccc(-c3nnc(C(F)F)o3)cc2F)C(=S)N2C[C@@H]3C[C@H]2CN3C2COC2)cc1
Q. Fc1cc(-c2nnc(C(F)F)o2)ccc1CN(C(=S)N1CC2(C1)CN(C1COC1)C2)c1ccccc1
Ask: // compare measured IC50 between P and Q ; output the lower one # reply format: chosen label
Reply: Q
(Q: 50 nM, P: 73 nM)

P. Fc1ccc(N(Cc2ccc(-c3nnc(C(F)F)o3)cc2F)C(=S)N2C[C@@H]3C[C@H]2CN3C2COC2)cc1F
Q. CN1CCN(C(=S)N(Cc2ccc(-c3nnc(C(F)F)o3)cc2)c2ccccc2)CC1
Ask: // compare measured IC50 between P and Q ; output the lower one # reply format: chosen label
Reply: Q

A. CN1CC2(C1)CN(C(=S)N(Cc1ccc(-c3nnc(C(F)F)o3)cc1F)c1ccc(F)cc1)C2
B. CN1CC2(C1)CN(C(=S)N(Cc1ccc(-c3nnc(C(F)F)o3)cc1)c1ccc(F)c(Cl)c1)C2
C. CN1CC2(C1)CN(C(=S)N(Cc1ccc(-c3nnc(C(F)F)o3)cc1)c1ccc(F)cc1)C2
Ask: Place the items in sequence of falling IC50. List the labels according to the requested ordering.
Reply: B, C, A
